- experiment notes: Antioxidant activity assessed as H2O2 scavenging activity after 15 mins
- Type: physicochemical
Provide the reported log10 EC50 of each item.
Plainly stated, the numbers are log10 of EC50 given in µM.

Name the recorded log10 EC50 for O=c1c2cc(O)ccc2oc2cccc(O)c12 .
1.90

Lab note: each molecule below needs its log10 EC50 filled in.
1. O=C1c2c(O)cc(O)c([C@@H]3C(=O)c4c(O)cc(O)cc4O[C@H]3c3ccc(O)c(O)c3)c2O[C@H](c2ccc(O)c(O)c2)[C@H]1O
2. C=C(C)[C@@H](CC=C(C)C)C[C@@]12C[C@@H](CC=C(C)C)C(C)(C)[C@@](CC=C(C)C)(C(=O)C(C(=O)c3ccc(O)c(O)c3)=C1O)C2=O
3. O=c1c(O)c(-c2ccc(O)c(O)c2)oc2cc(O)cc(O)c12
4. CC1(C)C=Cc2c(cc3oc4c(O)c(O)ccc4c(=O)c3c2O)O1
5. CC(C)=CCc1c(O)cc2oc3c(O)c(O)ccc3c(=O)c2c1O
6. O=C1c2c(O)cc(O)c(-c3coc4cc(O)cc(O)c4c3=O)c2O[C@H](c2ccc(O)c(O)c2)[C@H]1O

1. 0.45
2. 1.20
3. 0.79
4. 1.42
5. 1.29
6. 1.24
